src = patent US11046697B2

Test system: KM12 wild type colon carcinoma cell line harboring the TPM3-NTRK1 fusion protein
Assay: NTRK wild type cellular assay (CellTiter-Glo growth inhibition)
Assay type: cell-based
Details: Homo sapiens, KM12, 72 h, 72 hr, CellTiter-Glo; read-out: KM12 (WT) IC50
Description: NTRK Wild Type and G595R Mutant Cellular Assays Protocol KM12 wild type colon carcinoma cell line harboring the TPM3-NTRK1 fusion protein was obtained from the National Cancer Institute (NCI). […] 72 hr after dosing, assay plates were developed using CellTiter-Glo (Promega) and resultant luminescence was read on the Envision plate reader. IC50 determinations were calculated using a 4-parameter curve fitting algorithm

{"compound": "O=C(c1n[nH]c2ncnc(N[C@@H]3CCC[C@H]3O)c12)N1CCC[C@@H]1c1cc(F)ccc1F", "IC50": "< 10 nM"}
{"compound": "N#Cc1cc(F)cc([C@H]2C[C@H](F)CN2C(=O)c2n[nH]c3ncnc(N[C@H]4[C@H](O)[C@H](O)[C@@H]5C[C@@H]54)c23)c1", "IC50": "10 to 100 nM"}
{"compound": "O=C(NCc1cc(F)ccc1Cl)c1n[nH]c2ncnc(N[C@@H]3CC[C@@H](O)[C@H]3O)c12", "IC50": "100 to 1000 nM"}
{"compound": "O=C(c1n[nH]c2ncnc(N[C@@H]3CC[C@@H](O)[C@H]3O)c12)N1CC(F)(F)C[C@@H]1c1cc(F)cc(F)c1", "IC50": "100 to 1000 nM"}
{"compound": "O=C(NCc1cc(F)ccc1F)c1n[nH]c2ncnc(N[C@@H]3CCOC[C@H]3O)c12", "IC50": "100 to 1000 nM"}
{"compound": "[2H]C([2H])([2H])N(Cc1cc(F)ccc1F)C(=O)c1n[nH]c2ncnc(N[C@@H]3COCC[C@H]3O)c12", "IC50": "10 to 100 nM"}
{"compound": "COc1c(F)cc(F)cc1CNC(=O)c1n[nH]c2ncnc(N[C@@H]3COCC[C@H]3O)c12", "IC50": "100 to 1000 nM"}
{"compound": "O=C(NCc1cc(F)ccc1F)c1n[nH]c2ncnc(N[C@@H]3COCC[C@H]3O)c12", "IC50": "10 to 100 nM"}
{"compound": "CN(Cc1cc(Cl)ccc1F)C(=O)c1n[nH]c2ncnc(N[C@@H]3CC[C@@H](O)[C@H]3O)c12", "IC50": "< 10 nM"}
{"compound": "O=C(c1n[nH]c2ncnc(N[C@@H]3CC[C@@H](O)[C@H]3O)c12)N1C[C@@H](F)C[C@@H]1c1cc(F)ccc1Cl", "IC50": "< 10 nM"}
{"compound": "N#C[C@H]1C[C@H](c2cc(F)ccc2F)N(C(=O)c2n[nH]c3ncnc(N[C@@H]4COCC[C@H]4O)c23)C1", "IC50": "10 to 100 nM"}
{"compound": "C[C@@H](NC(=O)c1n[nH]c2ncnc(N[C@@H]3CCC[C@H]3O)c12)c1cc(F)ccc1F", "IC50": "10 to 100 nM"}
{"compound": "CN(Cc1cc(F)ccc1F)C(=O)c1n[nH]c2ncnc(N[C@@H]3COCC[C@H]3O)c12", "IC50": "10 to 100 nM"}
{"compound": "O=C(c1n[nH]c2ncnc(N[C@@H]3COCC[C@H]3O)c12)N1C[C@@H](F)C[C@@H]1c1cncc(F)c1", "IC50": "10 to 100 nM"}
{"compound": "O=C(N[C@H](CO)c1cc(F)ccc1F)c1n[nH]c2ncnc(N[C@@H]3COCC[C@H]3O)c12", "IC50": "100 to 1000 nM"}
{"compound": "O=C(c1n[nH]c2ncnc(N[C@@H]3CCOC[C@H]3O)c12)N1C[C@@H](F)C[C@@H]1c1cc(F)cnc1Cl", "IC50": "10 to 100 nM"}
{"compound": "O=C(c1n[nH]c2ncnc(N[C@H]3[C@H](O)[C@H](O)[C@@H]4C[C@@H]43)c12)N1C[C@@H](F)C[C@@H]1c1cc(F)cc(Cl)c1", "IC50": "< 10 nM"}
{"compound": "CN(Cc1cc(F)ccc1OC(F)(F)F)C(=O)c1n[nH]c2ncnc(N[C@@H]3CC[C@@H](O)[C@H]3O)c12", "IC50": "10 to 100 nM"}
{"compound": "O=C(c1n[nH]c2ncnc(N[C@@H]3CC[C@@H](O)[C@H]3O)c12)N1CCC[C@@H]1c1cc(F)ccc1F", "IC50": "10 to 100 nM"}
{"compound": "O=C(c1n[nH]c2ncnc(N[C@H]3[C@H](O)[C@H](O)[C@@H]4C[C@@H]43)c12)N1C[C@@H](F)C[C@@H]1c1cc(F)ccc1F", "IC50": "< 10 nM"}
{"compound": "O=C(c1n[nH]c2ncnc(N[C@@H]3COCC[C@H]3O)c12)N1C[C@@H](F)C[C@@H]1c1cc(F)cc(F)c1F", "IC50": "< 10 nM"}
{"compound": "O=C(c1n[nH]c2ncnc(NC3CC(F)CC3O)c12)N1CC(F)CC1c1cc(F)cc(F)c1F (stereo not drawn)", "IC50": "< 10 nM"}
{"compound": "CN(Cc1cc(F)cnc1Cl)C(=O)c1n[nH]c2ncnc(N[C@@H]3CC[C@@H](O)[C@H]3O)c12", "IC50": "10 to 100 nM"}
{"compound": "O=C(NCc1cc(F)ccc1F)c1n[nH]c2ncnc(N[C@@H]3C[C@@H](F)C[C@H]3O)c12 (relative stereo)", "IC50": "10 to 100 nM"}
{"compound": "O=C(NCc1cc(F)ccc1F)c1n[nH]c2ncnc(N[C@@H]3CCC[C@@H](O)[C@H]3O)c12", "IC50": "100 to 1000 nM"}
{"compound": "O=C(c1n[nH]c2ncnc(N[C@@H]3C[C@@H](C(F)F)C[C@H]3O)c12)N1C[C@@H](F)C[C@@H]1c1cc(F)ccc1F", "IC50": "< 10 nM"}
{"compound": "N#C[C@H]1C[C@H](c2cc(F)ccc2F)N(C(=O)c2n[nH]c3ncnc(N[C@@H]4CCC[C@H]4O)c23)C1", "IC50": "< 10 nM"}
